- System under test: EGFR (Homo sapiens)
- Construct: Add 7 ug A431 cell lysate per well (EGFR source); endogenous in cells; host or cells: A431
- Sequence (P00533 25-1210): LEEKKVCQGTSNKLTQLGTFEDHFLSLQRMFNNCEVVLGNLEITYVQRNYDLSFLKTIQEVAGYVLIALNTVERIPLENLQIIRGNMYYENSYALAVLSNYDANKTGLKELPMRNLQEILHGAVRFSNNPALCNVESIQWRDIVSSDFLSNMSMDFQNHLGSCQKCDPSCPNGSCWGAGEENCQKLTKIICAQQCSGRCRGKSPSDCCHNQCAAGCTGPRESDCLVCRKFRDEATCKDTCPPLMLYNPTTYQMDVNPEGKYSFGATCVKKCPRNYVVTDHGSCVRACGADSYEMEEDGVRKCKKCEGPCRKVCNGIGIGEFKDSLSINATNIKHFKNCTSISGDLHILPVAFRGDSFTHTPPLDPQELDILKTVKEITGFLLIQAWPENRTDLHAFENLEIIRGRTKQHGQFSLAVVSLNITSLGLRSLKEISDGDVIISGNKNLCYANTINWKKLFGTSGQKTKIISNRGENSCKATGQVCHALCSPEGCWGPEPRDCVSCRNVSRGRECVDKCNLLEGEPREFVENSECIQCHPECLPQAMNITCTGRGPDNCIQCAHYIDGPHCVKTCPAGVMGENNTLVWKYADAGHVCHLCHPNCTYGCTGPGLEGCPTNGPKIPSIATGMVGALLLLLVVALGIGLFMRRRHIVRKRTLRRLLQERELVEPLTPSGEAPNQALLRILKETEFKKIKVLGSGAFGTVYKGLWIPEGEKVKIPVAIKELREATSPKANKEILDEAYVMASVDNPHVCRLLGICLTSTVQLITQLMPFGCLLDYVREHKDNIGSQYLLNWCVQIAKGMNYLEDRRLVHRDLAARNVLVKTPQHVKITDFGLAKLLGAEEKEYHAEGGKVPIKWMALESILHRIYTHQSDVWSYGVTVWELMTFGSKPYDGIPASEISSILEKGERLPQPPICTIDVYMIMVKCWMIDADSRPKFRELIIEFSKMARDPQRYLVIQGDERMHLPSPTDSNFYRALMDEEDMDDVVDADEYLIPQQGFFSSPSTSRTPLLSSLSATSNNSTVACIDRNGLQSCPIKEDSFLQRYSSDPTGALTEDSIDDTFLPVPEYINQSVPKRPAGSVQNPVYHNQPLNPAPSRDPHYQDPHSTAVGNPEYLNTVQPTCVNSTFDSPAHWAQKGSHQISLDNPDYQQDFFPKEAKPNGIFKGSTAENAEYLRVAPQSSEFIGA
- Test description: EGFR ELISA assay (in vitro kinase activity, EGFR captured from A431 cell lysate)
- Assay type: biochemical
- Design: concentration or dose not given beside the values
Reported values of Biochem EGFR %Inhibition for individual entries
Answer with a number only, understood to be in %.

- O=C1Nc2ccc(I)cc2C1=Cc1ccccc1 [10720/B06]: 21.2

Give the value of Biochem EGFR %Inhibition reported for the following: COc1c(C)cc(C=C2C(=O)Nc3ccc(I)cc32)cc1C [10733/B06]
43.6

Give the value of Biochem EGFR %Inhibition reported for the following: CC(C)c1ccc2occ(C=C3C(=O)Nc4ccc(I)cc43)c(=O)c2c1 [10731/B05]
35.9

Give the value of Biochem EGFR %Inhibition reported for the following: CNS(=O)(=O)c1ccc2c(c1)C(=Cc1cc(I)c(OC)c(C(C)(C)C)c1)C(=O)N2 [10732/D11]
-13.4

Give the value of Biochem EGFR %Inhibition reported for the following: CCN(CC)c1ccc(C=C2C(=O)Nc3ccc(S(=O)(=O)NC)cc32)c(O)c1 [10734/D05]
-9.6

* * *

- System under test: EGFR (Homo sapiens)
- Construct: Add 7 ug A431 cell lysate per well (EGFR source); endogenous in cells; host or cells: A431
- Test description: EGFR ELISA assay (in vitro kinase activity, EGFR captured from A431 cell lysate)
- Format: biochemical
- Parameters: concentration or dose not given beside the values
Measurement kind: Biochem EGFR %Inhibition (%)
Answer with a number only, understood to be in %.

Example entries and their recorded answers appear below.
* O=C1Nc2ccc(S(=O)(=O)N3CCOCC3)cc2C1=Cc1ccc(F)cc1Cl | -17.7
* Cc1c(Br)ccc2c1C(=Cc1ccc(OCc3ccccc3)c(C(C)(C)C)c1)C(=O)N2 | -43.2
* CC(C)(C)c1cc(C=C2C(=O)Nc3c(Br)cc(Br)cc32)cc([N+](=O)[O-])c1O | 23.7

Give the value of Biochem EGFR %Inhibition reported for the following: COc1c(C)cc(C=C2C(=O)Nc3ccc(CCCl)cc32)cc1C
5.2

Give the value of Biochem EGFR %Inhibition reported for the following: Cc1c(Br)ccc2c1C(=Cc1sc3scc(C)c3c1C)C(=O)N2
0.7

Give the value of Biochem EGFR %Inhibition reported for the following: O=C1Nc2ccc(I)cc2C1=Cc1ccc(Br)o1
49.0

Give the value of Biochem EGFR %Inhibition reported for the following: COc1cc(C=C2C(=O)Nc3c(Br)cc(Br)cc32)cc2c1OCO2
-0.6

Give the value of Biochem EGFR %Inhibition reported for the following: Cc1ccsc1C=C1C(=O)Nc2c(Br)cc(Br)cc21
23.4

Give the value of Biochem EGFR %Inhibition reported for the following: Cc1cc2occ(C=C3C(=O)Nc4ccc(CCCl)cc43)c(=O)c2cc1C
7.7

* * *

- System under test: FLK-1 receptor (Mus musculus, UniProt P35918)
- Construct: expressed in transfected cells; host or cells: NIH3T3 C7#3
- Sequence (P35918 20-1345): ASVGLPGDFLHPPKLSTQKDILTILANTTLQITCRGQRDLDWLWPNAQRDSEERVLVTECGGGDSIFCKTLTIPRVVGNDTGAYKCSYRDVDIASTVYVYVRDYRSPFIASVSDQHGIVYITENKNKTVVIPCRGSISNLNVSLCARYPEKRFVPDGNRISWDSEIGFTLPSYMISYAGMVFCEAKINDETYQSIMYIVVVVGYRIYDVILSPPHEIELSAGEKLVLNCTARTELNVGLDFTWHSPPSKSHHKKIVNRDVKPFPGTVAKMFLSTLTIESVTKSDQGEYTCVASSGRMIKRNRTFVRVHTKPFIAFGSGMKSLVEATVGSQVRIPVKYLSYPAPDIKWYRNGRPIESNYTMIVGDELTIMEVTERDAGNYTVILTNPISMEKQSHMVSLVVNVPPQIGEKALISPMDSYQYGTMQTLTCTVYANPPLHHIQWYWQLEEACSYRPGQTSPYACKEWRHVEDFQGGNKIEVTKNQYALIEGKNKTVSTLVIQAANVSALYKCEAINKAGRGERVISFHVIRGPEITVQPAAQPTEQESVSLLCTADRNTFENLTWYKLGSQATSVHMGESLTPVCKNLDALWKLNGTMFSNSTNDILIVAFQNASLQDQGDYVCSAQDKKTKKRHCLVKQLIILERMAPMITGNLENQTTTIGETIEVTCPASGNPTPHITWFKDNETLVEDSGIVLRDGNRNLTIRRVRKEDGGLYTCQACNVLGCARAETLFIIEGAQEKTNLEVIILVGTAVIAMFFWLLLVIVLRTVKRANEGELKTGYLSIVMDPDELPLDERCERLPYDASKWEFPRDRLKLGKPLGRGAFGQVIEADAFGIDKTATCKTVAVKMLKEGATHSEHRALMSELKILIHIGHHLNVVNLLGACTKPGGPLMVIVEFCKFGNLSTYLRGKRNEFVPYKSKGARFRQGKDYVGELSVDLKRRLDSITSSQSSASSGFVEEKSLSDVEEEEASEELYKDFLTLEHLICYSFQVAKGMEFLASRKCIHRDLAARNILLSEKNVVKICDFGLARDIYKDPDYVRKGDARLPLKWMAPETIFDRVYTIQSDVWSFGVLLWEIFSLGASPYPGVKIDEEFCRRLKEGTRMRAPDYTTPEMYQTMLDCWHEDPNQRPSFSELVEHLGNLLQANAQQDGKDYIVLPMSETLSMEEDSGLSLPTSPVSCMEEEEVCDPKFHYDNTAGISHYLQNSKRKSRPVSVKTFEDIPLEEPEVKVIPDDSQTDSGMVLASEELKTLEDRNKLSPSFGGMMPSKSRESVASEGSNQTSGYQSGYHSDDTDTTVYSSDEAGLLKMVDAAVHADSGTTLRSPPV
- Test description: FLK-1 ELISA (kinase activity of the FLK-1 receptor in FLK-1/NIH3T3 cells, VEGF stimulated)
- Format: cell-based
Measurement kind: Fik Kinase %Inhibition
Please give the number followed by its unit.

* O=C1Nc2ccc(CCCl)cc2C1=Cc1ccc(F)cc1C(F)(F)F | 6.9%
* CCOC(=O)c1c(C)[nH]c(C=C2C(=O)Nc3ccc(Br)c(C)c32)c1C | 26.2%

Give the value of Fik Kinase %Inhibition reported for the following: Cn1cc(Cl)c(C=C2C(=O)Nc3c(Br)cc(Br)cc32)n1
11.4%

Give the value of Fik Kinase %Inhibition reported for the following: O=C1Nc2ccc(I)cc2C1=Cc1coc2ccc(Cl)cc2c1=O
2.4%

Give the value of Fik Kinase %Inhibition reported for the following: CN1C(=O)C(=C2C(=O)Nc3ccc(CCCl)cc32)c2ccccc21
-9.0%

Give the value of Fik Kinase %Inhibition reported for the following: Cc1c(Br)ccc2c1C(=Cc1ccc(-c3ccccc3Cl)o1)C(=O)N2
7.3%

Give the value of Fik Kinase %Inhibition reported for the following: O=C1Nc2ccc(CCCl)cc2C1=Cc1cccc(C(F)(F)F)c1F
22.6%
